Give measured Efficacy (%) NLuc (- ATP) for each item. Keep answers brief.
molecular target: NLuc (Oplophorus gracilirostris, UniProt Q9GV45, A31E/A60N/A81I/F95D/I117V/K70R/L54V/L99Q/M102K/N193R/P142E/Q151K/Q38R/Q45L/V71I/Y165I); construct: His tag (inferred from IMAC purification); made in house; host or cells: E. coli; type: biochemical; conditions: - ATP
Sequence (Q9GV45 other isoform, or with tags, fused parts or gaps with the stated changes): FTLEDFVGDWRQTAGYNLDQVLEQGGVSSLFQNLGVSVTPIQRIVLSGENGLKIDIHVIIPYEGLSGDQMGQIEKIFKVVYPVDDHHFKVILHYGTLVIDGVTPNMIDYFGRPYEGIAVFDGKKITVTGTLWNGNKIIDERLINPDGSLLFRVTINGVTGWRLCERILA
Respond numerically; units are % and should not be typed.

Recorded Efficacy (%) NLuc (- ATP) of COc1ccc(C2Cn3cnc(C(=O)N4CCC(C(=O)NC5CCCCCC5)CC4)c3CO2)cc1 (centres unmarked) , please.
-12.50

Please give the measured Efficacy (%) NLuc (- ATP) for this compound: COc1ccc(C2Cn3cnc(C(=O)N4CCC(C(=O)NCC5CC5)CC4)c3CO2)cc1 (centres unmarked)
0.00

Which Efficacy (%) NLuc (- ATP) reading was recorded for the compound Cc1ccc(NC(=O)C2CCN(C(=O)c3ncn4c3COC(c3ccccc3)C4)CC2)cc1 (centres unmarked) ?
0.00

Item under review: Cc1ccc(C2Cn3cnc(C(=O)N4CCC(C(=O)NCc5cccc(Cl)c5)CC4)c3CO2)cc1 (centres unmarked) . Reported Efficacy (%) NLuc (- ATP)?
0.00

Which Efficacy (%) NLuc (- ATP) value is on record for O=C(NCc1ccc(F)cc1Cl)C1CCN(C(=O)c2ncn3c2COC(c2ccccc2)C3)CC1 (centres unmarked) ?
0.00

====

target: P. pyralis FLuc (Photinus pyralis); test: FLuc enzymatic luminescence assay, P. pyralis FLuc; type: biochemical; conditions: FLuc enzymatic assay; Clade S follow-up; read-out: IC50 or SDR50 (mM) FLuc E
Sequence (P08659 whole entry): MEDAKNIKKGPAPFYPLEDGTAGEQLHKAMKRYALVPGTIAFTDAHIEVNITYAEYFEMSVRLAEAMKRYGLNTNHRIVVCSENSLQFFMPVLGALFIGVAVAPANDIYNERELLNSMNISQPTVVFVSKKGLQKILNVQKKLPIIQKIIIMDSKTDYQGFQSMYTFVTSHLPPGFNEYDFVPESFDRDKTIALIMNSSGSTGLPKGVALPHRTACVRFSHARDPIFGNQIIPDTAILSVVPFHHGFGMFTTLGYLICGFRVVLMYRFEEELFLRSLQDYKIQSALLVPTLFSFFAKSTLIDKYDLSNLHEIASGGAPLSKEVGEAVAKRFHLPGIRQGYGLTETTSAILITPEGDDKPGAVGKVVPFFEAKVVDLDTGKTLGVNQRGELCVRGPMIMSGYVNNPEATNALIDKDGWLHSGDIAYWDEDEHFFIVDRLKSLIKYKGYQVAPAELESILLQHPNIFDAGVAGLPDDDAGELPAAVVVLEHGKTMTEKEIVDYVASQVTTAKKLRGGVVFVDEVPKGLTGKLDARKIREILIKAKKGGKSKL
ASSAY_METRIC: log10(IC50) (log10 of the value in mM)
Scale: log10; quantity: IC50; unit before log: mM

I'm curious: which log10(IC50) was measured for Cc1ccc(NC(=O)C2CCN(C(=O)c3ncn4c3COC(c3ccccc3)C4)CC2)cc1C (stereo not shown) tested on P. pyralis FLuc (Photinus pyralis)?
-2.01

Form: Entry = O=C(NCc1cccc(F)c1)C1CCN(C(=O)c2ncn3c2COC(c2ccc(F)cc2)C3)CC1 (stereo not shown) | System = P. pyralis FLuc (Photinus pyralis) | log10(IC50) = ____
-2.01

Under P. pyralis FLuc (Photinus pyralis): log10(IC50) value of Cc1ccc(C2Cn3cnc(C(=O)N4CCC(C(=O)NCc5cc(F)ccc5F)CC4)c3CO2)cc1 (stereo not shown) ?
-1.95

Notebook: pull reported log10(IC50) for P. pyralis FLuc (Photinus pyralis), entry O=C(Nc1ccc(F)c(Cl)c1)C1CCN(C(=O)c2ncn3c2COC(c2ccccc2)C3)CC1 (stereo not shown)
-3.15

Short answer please: log10(IC50), P. pyralis FLuc (Photinus pyralis), entry CC(C)c1ccc(NC(=O)C2CCN(C(=O)c3ncn4c3COC(c3ccccc3)C4)CC2)cc1 (stereo not shown)
-2.51

Given the entry Cc1ccc(C2Cn3cnc(C(=O)N4CCC(C(=O)NCCC5=CCCCC5)CC4)c3CO2)cc1 (stereo not shown) , what log10(IC50) was observed with P. pyralis FLuc (Photinus pyralis)?
-2.01

Please tell me: log10(IC50) of O=C(NCc1ccccc1F)C1CCN(C(=O)c2ncn3c2COC(c2ccc(Cl)cc2)C3)CC1 (stereo not shown) , system P. pyralis FLuc (Photinus pyralis)?
-1.91

Query the reported log10(IC50) for P. pyralis FLuc (Photinus pyralis); item: O=C(NCc1ccc(F)cc1)C1CCN(C(=O)c2ncn3c2COC(c2ccc(Cl)cc2)C3)CC1 (stereo not shown)
-1.86

What log10(IC50) appears in the records for this compound with P. pyralis FLuc (Photinus pyralis)? Cc1ccc(C2Cn3cnc(C(=O)N4CCC(C(=O)NCc5cccc(Cl)c5)CC4)c3CO2)cc1 (stereo not shown)
-1.91

Param readout= log10(IC50); system= P. pyralis FLuc (Photinus pyralis); entry= Cc1ccc(C2Cn3cnc(C(=O)N4CCC(C(=O)NCc5ccccc5F)CC4)c3CO2)cc1 (stereo not shown) ; returns value.
-1.91

Request: log10(IC50), test system P. pyralis FLuc (Photinus pyralis), entry CCOc1ccc(NC(=O)C2CCN(C(=O)c3ncn4c3COC(c3ccccc3)C4)CC2)cc1 (stereo not shown)
-2.36

Tell me reported log10(IC50) for CCc1cccc(NC(=O)C2CCN(C(=O)c3ncn4c3COC(c3ccccc3)C4)CC2)c1 (stereo not shown) , tested with P. pyralis FLuc (Photinus pyralis).
-2.75

Short answer please: log10(IC50), P. pyralis FLuc (Photinus pyralis), entry Cc1ccc(NC(=O)C2CCN(C(=O)c3ncn4c3COC(c3ccccc3)C4)CC2)cc1 (stereo not shown)
-2.61

Item: Cc1ccc(C2Cn3cnc(C(=O)N4CCC(C(=O)NCCc5ccccc5)CC4)c3CO2)cc1 (stereo not shown) Test system: P. pyralis FLuc (Photinus pyralis) Read-out: log10(IC50) Value: ?
-1.91

What reported log10(IC50) corresponds to COc1cccc(CNC(=O)C2CCN(C(=O)c3ncn4c3COC(c3ccc(C)cc3)C4)CC2)c1 (stereo not shown) on P. pyralis FLuc (Photinus pyralis)?
-1.91

Find the measured log10(IC50): item O=C(Nc1ccc(F)cc1)C1CCN(C(=O)c2ncn3c2COC(c2ccccc2)C3)CC1 (stereo not shown) , target or system P. pyralis FLuc (Photinus pyralis).
-2.91

Entry Cc1ccc(NC(=O)C2CCN(C(=O)c3ncn4c3COC(c3ccc(F)cc3)C4)CC2)c(C)c1 (stereo not shown) , system P. pyralis FLuc (Photinus pyralis): what log10(IC50) was measured?
-1.95

Notebook entry, P. pyralis FLuc (Photinus pyralis) assay: log10(IC50) of CC(C)c1ccc(NC(=O)C2CCN(C(=O)c3ncn4c3COC(c3ccc(F)cc3)C4)CC2)cc1 (stereo not shown) = ?
-1.86

Recorded log10(IC50) for O=C(Nc1ccc(F)c(F)c1)C1CCN(C(=O)c2ncn3c2COC(c2ccccc2)C3)CC1 (stereo not shown) with P. pyralis FLuc (Photinus pyralis), please?
-3.11

====

biological target: FLuc-C-HiBiT (Photinus pyralis, UniProt P08659); construct: firefly luciferase with C-terminal HiBiT tag, E. coli expressed; assay: biochemical; conditions: enzyme activity, 10 uM ATP; read-out: IC50 or SDR50 (mM) / FLuc E
Sequence (P08659 whole entry, looked up): as the sequence (P08659 whole entry) above
Give measured IC50 for each item. Keep answers brief.
Give the value in µM but do not write µM after it.

Query: IC50; subject: "COc1ccc(-c2noc([C@@H]3C[C@H](NCc4ccccn4)CN3C)n2)cc1"
20.2

State the recorded IC50 for this entry: "O=C(Nc1cccnc1)c1nc2c(o1)CCN(Cc1nccs1)CC2"
20.2

Please give the measured IC50 for this compound: "CC(=O)Nc1cccc(-c2cc3c(cn2)CN(Cc2ccccc2)CCN3)c1"
16.1

Which IC50 value belongs to "O=C1c2cnc(-c3cccc(CO)c3)nc2OCCN1c1ccccc1" ?
11.4

Query: IC50; subject: "COc1cccc(-c2nc(-c3cccc(C(=O)O)c3)no2)c1"
0.00394

Given "Cc1ccc(-c2cc3c(=O)n(CCNC(=O)c4ccc(C)s4)ccn3n2)c(C)c1" , state its recorded IC50.
7

What does the data say about its IC50? Entry: CCCCNC(=O)C1CCN(C(=O)c2ncn3c2COC(c2ccccc2)C3)CC1 (centres unmarked)
6.24

For the compound "c1ccc(-c2noc(-c3ccc(OC4CNC4)cc3)n2)cc1" , what IC50 is on record?
2.79

====

Task for the reader: assign each of the following compounds its reported IC50.
target: FLuc-C-HiBiT (Photinus pyralis); construct: firefly luciferase with C-terminal HiBiT tag, E. coli expressed; experiment: biochemical; conditions: enzyme activity, 10 uM ATP; read-out: IC50 or SDR50 (mM) / FLuc E
Use mM as the unit, but write only the number.

If you can, please state the reported IC50 value of O=C(Nc1ccc(F)c(F)c1)C1CCN(C(=O)c2ncn3c2COC(c2ccccc2)C3)CC1 (stereo not shown) .
0.000989

Fill in the blank: the reported IC50 of "Clc1ccc(-c2cc3c(cn2)CN(Cc2ccncc2)CCN3)cc1" is ____.
0.0161

Any idea what its IC50 is? The compound is "O=c1c2nc(N3CCC(c4ccccc4)CC3)ccc2ncn1C1CC1"
0.0036

# query: IC50 of entry Cc1cc(CNC(=O)C2CCCCn3nnnc32)c2[nH]c(-c3ccccc3)c(C)c2c1 (stereo not shown)
0.0111

Look at this compound and give its reported IC50. COCCN1CCC2(C1)CN(C)c1ccc(C(=O)Nc3ccc(F)cc3)cc12 (stereo not shown)
0.00718

Give its IC50 value. Item: "CN(CCO)c1ccc(-c2nc(CCCc3ccccc3)no2)cn1"
0.0124

Give the measured IC50 of "Cc1ccc(-n2nc(C)c([C@@H]3C=C[C@@H](NC(=O)NCc4ccccc4)C3)c2C)cc1Cl" .
0.018

Fill in the blank: the reported IC50 of "Cc1cccc(-c2nnc(SCCC(=O)O)o2)c1" is ____.
0.00495

Give the measured IC50 of "Cc1ccc(CNC(=O)Nc2cccc(-c3ccc(N4CCOCC4)nn3)c2)cc1" .
0.00279

# get_value(readout='IC50', item= O=C(CCCc1ccccc1)N1CCC2(CC1)CC(O)CCO2 (stereo not shown) )
0.0124

State the recorded IC50 for this entry: "CC1(NC(=O)C2CC2)CN(Cc2nc(-c3cccc(F)c3)cs2)C1"
0.0202

IC50 lookup needed for Cc1ccc(N2C(=O)c3[nH]nc(C)c3C2c2ccc(Cl)cc2)cc1 (stereo not shown) , thanks.
0.0124
